- System: Saccharomyces cerevisiae
- Test Method Notes: protein stability index of tFT-peptide fusion (C-terminal peptide) (PSI (0-1 scale)); higher = more stable (slower turnover)
- Experimental Parameters: genetic background: das1 deletion; temperature: 30 C
Values of protein stability index greater than or equal to 0.7 map to YES; values below map to NO.

> print(dat)
                        sequence.content  label.class
1   DEWRAKYGGQQV [MES1 C-terminal 12 aa]           NO
2   NSAAFLLMSLKS [STB3 C-terminal 12 aa]           NO
3   KLSAPIFSILHS [APT2 C-terminal 12 aa]          YES
4  KKLNFKLCQAFM [NUP85 C-terminal 12 aa]           NO

====

protein stability index for assorted sequences
- Test system: Saccharomyces cerevisiae
- Test Method Notes: protein stability index of tFT-peptide fusion (C-terminal peptide) (PSI (0-1 scale)); higher = more stable (slower turnover)
- Experimental Parameters: genetic background: wild type; temperature: 30 C
Property: protein stability index

> print(dat)
    sequence.content                 property  value
 1      VNRYSKETDAVF  protein stability index  0.672
 2      RNTIKTKKSNYV  protein stability index  0.654
 3      LPPIAFPPSFSP  protein stability index    0.7
 4      DNGVLVFLPVLD  protein stability index  0.679
 5      PAPPPSPRILLL  protein stability index  0.542
 6      CRILRPITLRFR  protein stability index  0.528
 7      YPVAWSSAIIIR  protein stability index  0.435
 8      LSPSMSRLWGSK  protein stability index  0.736
 9      QIKARVRRDLTL  protein stability index  0.692
10      LVLTLIDGSWNV  protein stability index  0.701
11      ASRWVLLGGGGV  protein stability index  0.693
12      RHKLYPRIVLNR  protein stability index  0.699
13      KQKKTQKIYTMR  protein stability index  0.728
14      KFYIIKRLSGVE  protein stability index   0.64
15      LSVSLFPIRYVG  protein stability index  0.396
16      SSDLTKKCNRLR  protein stability index  0.673
17      PPPHRPPPRPPR  protein stability index  0.697
18      IVGKMRRQKTKI  protein stability index  0.685
19      VRNVVYWEFVVE  protein stability index  0.585

====

- System: Saccharomyces cerevisiae
- Test Method Notes: protein stability index of tFT-peptide fusion (C-terminal peptide) (PSI (0-1 scale)); higher = more stable (slower turnover)
- Experimental Parameters: genetic background: wild type; temperature: 30 C
Property: protein stability index

> print(dat)
    sequence.content                 property  value
 1      PQTSRAPFPPPP  protein stability index  0.713
 2      VSLSWFSCCFVG  protein stability index  0.386
 3      HDQKVPRERRTR  protein stability index  0.699
 4      LLPPPPPPPSTP  protein stability index  0.772
 5      TPSSDFKPTGVR  protein stability index  0.654
 6      YRKAAGSQDRAV  protein stability index  0.663
 7      EARPQAMPGRHP  protein stability index  0.689
 8      YFLPLLCRSPSL  protein stability index  0.707
 9      VFGSYFFIPFFL  protein stability index  0.498
10      FRLFSLWFCWVR  protein stability index  0.348
11      IFINAGGYTHTN  protein stability index  0.726
12      IKGVEKDKKTQK  protein stability index  0.747
13      STPPCRPFMADL  protein stability index  0.619
14      FCWCARPLSWYN  protein stability index  0.615
15      PPHPARHRPPAS  protein stability index  0.732
16      ARVDGGGVRTDV  protein stability index  0.751
17      VLAGTGGCASVW  protein stability index  0.739
18      WGSGGGRDGCGV  protein stability index  0.655
19      WPMYSVIKAQLK  protein stability index  0.638
20      PFFLVSPEPLSI  protein stability index  0.666
21      RAIRWFGGRLVG  protein stability index  0.723
22      PPFLSAFPPHLP  protein stability index  0.724
23      CWSSPSFSLLFP  protein stability index  0.779
24      PTSACAPACPLL  protein stability index  0.706
25      LGVVCLGADLLR  protein stability index  0.693
26      SVWGIVWRGNIV  protein stability index  0.704
27      PPPPHPPPSLRA  protein stability index  0.677
28      SFPHSFLFPLFP  protein stability index  0.751
29      FAFPTPPPLLFD  protein stability index  0.751
30      DQNNSQIRHEQP  protein stability index  0.575
31      PGITRKTKKEKK  protein stability index  0.701
32      TFLVWSLMAGDR  protein stability index  0.464
33      DLRPSLPHPTQP  protein stability index  0.673
34      LCFGMVELMWIY  protein stability index  0.458
35      APPPLPPTPPPL  protein stability index  0.702
36      CPGGQVECGVLC  protein stability index  0.652
37      AILFSASLTLLL  protein stability index  0.598
38      RAGRVRAPGRWP  protein stability index  0.728
39      YSPFCPSASPWA  protein stability index  0.712
40      TGSRGPHRKPPD  protein stability index  0.691
41      RDPTTYGRSKEN  protein stability index  0.655

====

- System: Saccharomyces cerevisiae
- Test Method Notes: protein stability index of tFT-peptide fusion (C-terminal peptide) (PSI (0-1 scale)); higher = more stable (slower turnover)
- Experimental Parameters: genetic background: cdc53-1; temperature: 37 C
Property: protein stability index

> print(dat)
    sequence.content   value
 1      IYEAFLVFCLCG   0.454
 2      RAPPPSSLLSPP   0.724
 3      RSIAFLLGQFLS   0.745
 4      FFYRFQDLPRIC   0.743
 5      CFFSLLLLIFSV   0.412
 6      FFSLRRAVTVSA   0.217
 7      IGSFYVLSFICQ    0.61
 8      LFLSIFFFHLLF   0.251
 9      VCGYGFAVPCYT   0.549
10      GILVVAASICYV    0.48
11      LPHPLPFCFSLY   0.767
12      DQPLWIGVLAYC   0.471
13      KKKKKKKIKIMS   0.706
14      TLFSPPVLATPS   0.675
15      IMGGLRHRIEVY   0.403
16      IRVFSFLLFGCF   0.503
17      WQIGIYILQGLA   0.316
18      VSGEWSFLVRVQ   0.573
19      FPYARHLSVLLL   0.662
20      TLCCLVCSQGVV   0.598
21      CLCVLVSFFFGL   0.489
22      ISHLQCFFVVML   0.507
23      FILATGKGRWVV   0.776
24      VLVTFFIRSGVS    0.54
25      CLCFFLICFILF   0.255
26      ALLIYFLCRCIP   0.476
27      VGGSRGARLGVG   0.448
28      FFRPWRLVGCLV   0.312
29      FFFFPVYFIFVV   0.288
30      VSFGELGVEVVG   0.735
31      FFLFFLSFGCFL   0.533
32      VEQLLYIKATNV   0.703
33      ASHLGLGCLVVC   0.571
34      FFLVLWSSLLSP   0.554
35      SCLSYRTRLLAF   0.617
36      SPVPITVAVGCR   0.491
37      LAVVLVWVPGRW   0.526
38      FVIVSSCIGYAL   0.641
39      WFFPVSPPVMAS   0.195
40      FGFFRLVIVCFR    0.19
41      DYRCWCAILVSS   0.187
42      VGTIVLTCIEVN  0.0586
43      LFLLSHYALCFY    0.53
44      WFSMSRLWVFYS   0.637
45      VVQCRFPTPCVV   0.485
46      SIFWWWLVFILG   0.476
47      SSVFRLKGLMFL   0.721
48      LLPYSLSLALRA   0.391
49      VPTRRRGNRRPA   0.726
50      CVGLYCLFVLLG   0.357
51      VGVVLWVWGLGD   0.601
52      FFSPFFFFLFRL   0.309
53      LLVCLGYFLFLG   0.372
54      CFTLSLCLAFFF   0.455
55      GGVWLSVVSWVG   0.238
56      NFKELMEKSKYR   0.752
57      QGGTWKKLVKMI   0.696
58      LSTPPLLPTPPS    0.73
59      LPPFLSSLPSSP   0.769
60      ETQKEKRENAKP   0.702
61      FLFPFLSVLFLL   0.506
62      IFFVLVFFPGFF   0.541
63      SIPFWPVLFFLL   0.475
64      EDRKRNKERRWT   0.702
65      PSLVFLPPPPPR   0.745
66      RWALPALWAYAA   0.715
67      DSGMLDFLLMAW   0.545
68      PFLCLPFLLVSR   0.406
69      SCCLLICIFFIF   0.408
70      FGFWGVVSCCNA   0.566
71      LCFRLVSYLCIN   0.694
72      GFGRRGQFGGTG   0.863
73      HGVRLHTVWVGG   0.559
74      FCVVFFLSLVFL   0.491
75      VAWWVCIRSCCG    0.55
76      LLCSLGFRFSLF   0.728
77      LWFRGGYLFFVV   0.444
78      CGLLSALSCLVF    0.54
79      GRLDHWNKHKYI   0.687
80      GRWVLALCLVCG   0.199
81      AGTLLLGYGILA   0.464
82      WVRLGRSWTTVG   0.736
